Origin of values: the domain aggregation screens of Martell et al. (2025)

Each item that follows carries a reported soluble fraction (log2).
- test.details: soluble fraction after stress (log2 fold change); higher = more stays soluble; pooled small domains, quantitative proteomics
- applied.conditions: stress: pH 4
Give the figure only, with no unit attached.

Reference set, count: 2
residue.sequence	soluble fraction (log2)
HMAQTEIIRVTKDIKKGDAITADKFEKVKVGAYNLPGNVVKNADELKGKFAAADLVRGDYILTSKLTDNP	0.0605
HMFIPGDSVRVHVKVVEGSNERIQMFEGVVIARQGSGVRENFTVRRISYGVGIERTFPVHSPRL	-0.62

Lookup: Given the entry "HMKDYKSSLQERVQAVGGGQLIYRVNREEGPDHSKTFYMDLFLGDRLIGTGSGRNKKQAEQQAAKEAIERG" , report its measured soluble fraction (log2).
Found: 0.0469

Lookup: Any idea what its soluble fraction (log2) is? The sequence is "HMQSAEMTLDREGQPVQVRVELTGNEARITFLSDQEQTREALDAGMAQLRELLEQQGMVLAGVTV"
Found: -0.491

Lookup: # query: soluble fraction (log2) of entry "HMATPKRGFRKQLAPLVQSGTITREEAGELSRSSGDATALRTKIGELMKAGKLTRKEAGELYSDAFPENA"
Found: 0.0387

Lookup: May I ask what soluble fraction (log2) has been recorded for "HMTGREIDQLFSVVNDLKAKGVGMVFISHHLDEIARIADSVSVLRDGGFVAEVPASTPEKKLVTLMVGRDI" ?
Found: -0.369

Lookup: What does the record list as soluble fraction (log2) for "HMKLTTRQTEIINIVKAEQPISGEKIAQNLGLSRATLRNDLSILTMTGLLDAKPKVGYFYTGQ" ?
Found: 0.0805

Lookup: # input sequence: "HMALLSNTVDELHAGMRLDSYLFESGLYPSRSFAVKQIEAGKVFLNGDAVTKKTLVSNGDFIVYELEE" ; wanted: its soluble fraction (log2)
Found: -0.506

====

- test.details: soluble fraction after stress (log2 fold change); higher = more stays soluble; pooled small domains, quantitative proteomics
- applied.conditions: stress: pH 4
Label condition met for high-side soluble fraction (log2) (at or above -0.2) and condition not met for low-side soluble fraction (log2) (below it).

residue.sequence	class.name
HMDPGPVLISAQVLDDLEAIRRDGSSNMLDWPAVARLAEVMGMDRTAAWVRTHHREYSAGIFRGFASD	condition not met
HMANTVVMPNLLGKTMTEAKIELKELGIDITLKGSESSSKYSAGQIMEQNIAEGTKVEVGSSVEVTIAGS	condition met
HMQKADFDYGDYVDLGLAMGRQSRQLREAVGIKLGIGYANSKRFYQRLQTFGISLAELKQAVEEAENDQQN	condition met
HMNNLVGKTKVLKSNTNIYAYKTMSGKFYSYLPNTRVRVLQDLGYINYIEVIATKRRGYVYENVY	condition met
HMGETISVPAVRSLAYDRAVDMLTAEGLKGIVADSVYDNRTQPGTVIEQNPKAGTIVKEGREVYLTINA	condition met

Pending sequence:
Lookup: Identify whether the reported soluble fraction (log2) of the following sequence is -0.2 or greater: "HMDIHSEEYILGQNIRKYRLRLGWSQADLSNAVDIDRADISKYENGAKGIMSSTLLRKFAKALGVSMDALM"
Found: condition met

====

- test.details: soluble fraction after stress (log2 fold change); higher = more stays soluble; pooled small domains, quantitative proteomics
- applied.conditions: stress: pH 4
measurement.kind: soluble fraction (log2)
In your answer, state the number alone without any accompanying words.

residue.sequence	obs.value
HMNDAEEKAEAIEGVKNFMANMEKTDIDFKSKESVLLEQVEEIRKNYPVAQWPVIVKQLYNNIGRL	-0.257
HMKEYRKEGHLYFVTEDRNNEIYLWDFTDKPKHEFKEIITSVELQKVAKEGAMLQYKNGKYELYS	-0.0848
HMEVGKRIAEIRKENRMSQEQFGQLFHVTRQTVSNWENAKSYPDLQTLVKISELFEITMDELLK	-0.454
HMDLPDFTSRERDILARVVQGDSNERIAASLGVSVSTVKTHIGNILRKTGQTNRVRLIVWATRHL	-0.37
HMSDHKNANFTKVVKVAQELLQDEDDKAGITPTLIEEKISAVLAMNRRWAEGLDRAAVADELIRRFSIW	-0.951
HMQPQLFRVIADDGLNIRSGPGPEYPPVAPMLRKGTQVELLQAGDRWSKVEVVGSTDVEGWVNQRYLQAV	0.0927
HMSDGIPDLRNLNFLSPQEGDYLNESDRVFGVTINGDGQAYPLRIVNAHEMVNDTLGGEPISLM	-0.34
HMYEHLKALRESLGMTQAEFGESVGVAKSTYNNYEIGARDPKSDFWIAVAQRYGVTIDYLMGFSDDPKKT	0.253

Lookup: I'd like to know its soluble fraction (log2). The sequence in question is "HMETLGADLRALRKSRGLTLLDMAESLGRSVGWLSQVERDLSDPSISDLREIAELLGVPISMLFRH"
Found: -1.33

Lookup: Look up soluble fraction (log2): "HMLSNYIGMTLGEAKRNLGQGVNITVNGPNNDNAEVTGQDPTSGSSFDKSKDTITLTT"
Found: 0.225

Lookup: GET /values?readout=soluble fraction (log2)&item= "HMRTITIDDSIAGKRLDEALTLLGAESSRTKVKLLFSSPNGVLVNGEKEKPHYRVEAGDVIQFGELPKK"
Found: -0.104

====

- test.details: soluble fraction after stress (log2 fold change); higher = more stays soluble; pooled small domains, quantitative proteomics
- applied.conditions: stress: pH 4
Entries and their measured soluble fraction (log2) follow.
Output spec: single numeric token, no unit.

residue.sequence	measurement.kind	obs.value
HMSNSMISKDKAMSIALAKVSGATSSNIYIELEKDDGRYTYEGEINFNNKEYEFEIDAYTGNILKWEVDSI	soluble fraction (log2)	-0.0257
HMEDEISLGAINVPRGSVIVTAGGARLVEGSDYTVDYYSGTVKILNKSLLDAGTPINVSLET	soluble fraction (log2)	-0.0859
HMAKVDIPHEMVDQRIDEIVEEIKMNLESQNMSLDDYLKRMNQTEAQLRANYEATAAEQVRQGLV	soluble fraction (log2)	-0.982
HMDGVPPAGSRIRLTVSTQVGDKEFEGTLVPPAGVDLLTLKLANGYNLSHSIADVREVVLIEEGLQGEEP	soluble fraction (log2)	-2.05
HMEPERRHLEVPAEAEGERIDRFLASQLENLSRSRIQALIKAGYVRNRRGTIEDPGLRVKPGDAFVVDLPP	soluble fraction (log2)	0.255
HMETGEDSLRRYFNSLPGSASKREILEDNPTVSQRTTERILQKLQAEGFIEKVGAARATRYRKVKQ	soluble fraction (log2)	0.27
HMSSEITYDKFIEMVEEGNVKEVTLQSDTLTIKPKHQDSAFSEKEYYTRQMESADQLTERLEGTGIEFHS	soluble fraction (log2)	-0.642
HMENEDMTGDIRVIDYIRNVAEYIQTTKGQASASQMLDRFLFPPELQYTPLDKLSGGEQRRLYLLKVLMEA	soluble fraction (log2)	-0.575

Lookup: Need soluble fraction (log2) of "HMIKIEDYTNKDYNKVEASLEVKGLVVNIEYKAVDDKAKYKGKEDLIIDQSVKKDATLVKGDTIILYLPK" , thanks.
Found: 0.0435

Lookup: Looking for the measured soluble fraction (log2) of "HMTKRTEPSILQNFDTEIAELIAKNRGISIMDALRIFLASKTHEMLENDEMKLWYFSPLAVFDMWENE" , can you help?
Found: -0.61

====

- test.details: soluble fraction after stress (log2 fold change); higher = more stays soluble; pooled small domains, quantitative proteomics
- applied.conditions: stress: pH 4
measurement.kind: soluble fraction (log2)
Simply state the number, no unit and no words.

Previously resolved entries follow.
residue.sequence	soluble fraction (log2)
HMSKRDDLLDQASEWLAKLDRDLTVVEERELKAWLGESAAHRETFIQMAKLWDKMESLSRLTDL	-1.06
HMENLTLVIGNKLKNIRNSRNLSLDDVAELTGVSKAMLGQIERGKSNPTVSTLWKISTGLRVSFSSFIDE	-0.249

Shifting focus to the sequence that follows.
Lookup: Requested field: soluble fraction (log2). Item: "HMGSIEASFEEDVRRYLARKSMTTTEISKKMRQKRPDMSRDQLMTLLANAIKRIKPIKKKIKGTLYLSLE"
Found: 0.259

====

soluble fraction (log2) values, listed per item
- test.details: soluble fraction after stress (log2 fold change); higher = more stays soluble; pooled small domains, quantitative proteomics
- applied.conditions: stress: pH 4
Returns: the value as a bare number; no unit string appended.

Some entries whose results are on file:
residue.sequence	obs.value
HMSMLSQERQSLILDIIKEQGSVTVTRLTEILQSSESTVRRDLSYLASKGKINKVHGGATALG	-0.306
HMHRFAVLDTVREVAAGGVAATLSIGVGRDADSFDALFKNASMALEMALSRGGDQAVVKDRMNFQFYGG	-0.0192
HMKKPANLISEDRMVEVLYDVIIINTAKGVNKQLLQNNINNPLNYIYRSHGIDSLQFAESNAYYTS	-0.798
HMDGLTEQQADDILAFISIKGTNAEVLAALENYAGRNETFDTGLSELKVVASNLAAFGMPEENFVVDL	0.0229
HMRPTYRTRLEVLINNPAISGRDLDFAQSLLSYYERKGRLSAGRVKWVTTLEERYSPENLAASAAK	-0.306

Lookup: Which soluble fraction (log2) value belongs to "HMRKYKIKEELPDNIYKIIQDNPGIVQKDIYDILGREYQQNISSYIYSMDKNGVIKRDKHGNSYKLYL" ?
Found: -1.01

Lookup: Can you share its soluble fraction (log2)? I mean this sequence: "HMSNLTDLVSAKEAEVYLHFLESGSTAGMTEAELRAVRKIEELIQSNKIDYNGILRIRNETVK"
Found: -0.137

Lookup: Form field: reported soluble fraction (log2) of "HMRILGIDPGTRITGYGIIDIEGNRLRHVDNGIIKTRSSDALPLRLKVIYDGLTAVLKQYSPQAV"
Found: -0.629
